Origin of values: PubChem BioAssay (NCI)

- Tested on: DU-145 prostate
- Test Description: NCI-60 one-dose screen, 48 h
- Run Parameters: 10 µM unless noted
This is part of a sample that, as a whole, favours compounds with a hit. Of some 83,000 tested, about 20% had one in any assay. Calls of active or inactive are those of the source. Rule for the calls: active = growth percent below 10; inactive = the rest.
Give one outcome, nothing more. List: class 1 for active, class 0 for inactive

Ask | What was the test verdict on O=NN(c1ccccc1)c1ccccc1 ?
Reply | class 0

Ask | And Cc1ccc(NC2=N[C@]34CC(=O)CC[C@]3(C)[C@H]3CC[C@]5(C)C(=O)CC[C@H]5[C@@H]3C[C@@H]4S2)c(C)c1 ?
Reply | class 0

Ask | And CN(C)c1ccc(C=C2C(=O)NC(=O)NC2=O)cc1 ?
Reply | class 0

Ask | And C[C@]12CCc3sc(Nc4ccc(F)cc4)nc3C1=CC[C@@H]1[C@@H]2CC[C@]2(C)C(=O)CC[C@@H]12 ?
Reply | class 0

Ask | And COc1c(O)cc2c(c1OC)-c1ccc(SC)c(=O)cc1C(NC(C)=O)CC2 (stereo not given) ?
Reply | class 1

Ask | And O=c1[nH]c(=O)[nH]c(=O)[nH]1 ?
Reply | class 0

Ask | And O=C=Nc1ccc(Br)cc1 ?
Reply | class 0

Ask | And O=C(O)C(Br)CBr (stereo not given) ?
Reply | class 0

Ask | And O=C(O)c1cc([N+](=O)[O-])cc([N+](=O)[O-])c1 ?
Reply | class 0

Ask | And C/C=C(/C)C(=O)O[C@H]1CC[C@@]2(C)[C@@H]3CC[C@H]4[C@]5(O)C[C@H](O)[C@@]6(O)[C@@H](CN7C[C@@H](C)CC[C@H]7[C@@]6(C)O)[C@]5(O)C[C@@]42O[C@@]13O ?
Reply | class 0

====

- Test system: HL-60(TB) leukemia
- Test Description: NCI-60 one-dose screen, 48 h
- Run Parameters: 10 µM unless noted
The panel holds about 83,000 compounds, 20% with a hit somewhere; the sample as a whole holds those more often. Activity calls are given as the source filed them. How the source made its calls: active means growth percent below 10; inactive means the rest.
Give one outcome, nothing more. List: active, inactive

Ask | What was the test verdict on Cc1nnc([S-])o1.[Au+].c1ccc([PH+](c2ccccc2)c2ccccc2)cc1 ?
Reply | active

Ask | And O=NN1CCCCC1 ?
Reply | inactive

Ask | And C[C@]12CCc3sc(Nc4ccc(F)cc4F)nc3C1=CC[C@@H]1[C@@H]2CC[C@]2(C)C(=O)CC[C@@H]12 ?
Reply | inactive

Ask | And CC(C)COC(=O)Cc1ccccc1 ?
Reply | inactive

Ask | And CNC(=O)O/N=C(\SC)C(=O)N(C)C ?
Reply | inactive

Ask | And CC(=O)OCC1OC([S-])C(OC(C)=O)C(OC(C)=O)C1OC(C)=O.[Au+].c1ccc(CN2[CH-]N(Cc3ccccc3)C(c3ccccc3)=C2c2ccccc2)cc1 ?
Reply | active

Ask | And COc1ccc(N)cc1N ?
Reply | inactive

Ask | And Cc1cc(N)ccc1N ?
Reply | inactive

Ask | And CN(C)[C@@H]1C(=O)C(C(N)=O)=C(O)[C@@]2(O)C(=O)C3=C(O)c4c(O)ccc(Cl)c4[C@@](C)(O)[C@H]3C[C@@H]12 ?
Reply | inactive

Ask | And CC[C@H](C)[C@H](NC(=O)[C@H]1CCCCN1C)C(=O)N(C)[C@H](C(=O)NC12CC(C(=O)N[C@@H](Cc3ccccc3)C[C@H](C)C(=O)OC)(C1)C2)C(C)C ?
Reply | inactive

Ask | And COc1cc(-c2ccc(N)c(OC)c2)ccc1N ?
Reply | inactive

Ask | And Nc1c(Cl)c(Cl)nc(C(=O)O)c1Cl ?
Reply | inactive

Ask | And N#CCc1ccc(CC#N)cc1 ?
Reply | inactive

Ask | And COc1ccc(O)c2c(=O)c3c(OC)cc4c(c3oc12)[C@@H]1C=CO[C@@H]1O4 ?
Reply | inactive

Ask | And C[N+]1(C)CCCC1c1cccnc1 (stereo unspecified) ?
Reply | inactive

Ask | And CC/C(Cc1ccccc1)=C(\c1ccc(OCCN2CCCC2)cc1)c1ccc(OC(=O)NCc2ccccc2)cc1 ?
Reply | active

Ask | And N#Cc1ccc(Cl)cc1 ?
Reply | inactive

Ask | And C[C@]12CCC(=O)C[C@@H]1CC[C@@H]1[C@@H]2CC[C@]2(C)[C@@H](OC(=O)N(CCCl)N=O)CC[C@@H]12 ?
Reply | active

Ask | And CO[C@@H]([CH2][Hg][O]C(=O)c1ccccc1)[C@@H]([CH2][Hg][O]C(=O)c1ccccc1)OC ?
Reply | inactive

Ask | And CCN1C(=O)CC(=O)N(CC)C1=S ?
Reply | inactive

Ask | And O=[N+]([O-])c1cc(Cl)c(Cl)c([N+](=O)[O-])c1Cl ?
Reply | inactive
